SYSTEM_UNDER_TEST: C3orf64
PROCEDURE_DETAILS: pooled miR-30 sensor sort-seq; sequence = guide strand; further: reference of the scale not given here
CONDITIONS: shRNA
Criterion: sensor-assay potency score (higher = more potent) meeting or surpassing -1. Met: TRUE. Not met: FALSE.

Q: Say whether TAACATGTTGTAATTCTTCTTA shows sensor-assay potency score (higher = more potent) of -1 or more.
Ans: TRUE

Q: Say whether TTAGTTGATCTAAAAACCCAAG shows sensor-assay potency score (higher = more potent) of -1 or more.
Ans: FALSE

Q: Say whether TATAACATGGTCCTATAGCTTG shows sensor-assay potency score (higher = more potent) of -1 or more.
Ans: FALSE

Q: Say whether TATAGCTTTGTAGCTCAGCAAA shows sensor-assay potency score (higher = more potent) of -1 or more.
Ans: FALSE

Next:
Q: Say whether TAAACAAGTTGGAACACTCTGG shows sensor-assay potency score (higher = more potent) of -1 or more.
Ans: TRUE

----------
SYSTEM_UNDER_TEST: TBX10
PROCEDURE_DETAILS: pooled miR-30 sensor sort-seq; sequence = guide strand
CONDITIONS: shRNA
Criterion: sensor-assay potency score (higher = more potent) meeting or surpassing -0.7. Met: Criterion met. Not met: Criterion not met.

Here are 3 sequences together with their reported answers.
Q: Say whether TATCTCTTGTCGTCCAGGGGGA shows sensor-assay potency score (higher = more potent) of -0.7 or more.
Ans: Criterion met

Q: Say whether TCCAGCTGAACTGTCACTCTGG shows sensor-assay potency score (higher = more potent) of -0.7 or more.
Ans: Criterion met

Q: Say whether TTCTGATAGGCTGTCACTGCTG shows sensor-assay potency score (higher = more potent) of -0.7 or more.
Ans: Criterion met

Next:
Q: Say whether TATGGTGCTGGTCGGGTCCTTG shows sensor-assay potency score (higher = more potent) of -0.7 or more.
Ans: Criterion not met

Q: Say whether TGGAGGTGGAAGCTGAAGCTTT shows sensor-assay potency score (higher = more potent) of -0.7 or more.
Ans: Criterion not met

Q: Say whether TTCATCTCCAGCTGAACTGTCA shows sensor-assay potency score (higher = more potent) of -0.7 or more.
Ans: Criterion met

Q: Say whether TTGCTGGCGATTTTCAGCTGGG shows sensor-assay potency score (higher = more potent) of -0.7 or more.
Ans: Criterion met

Q: Say whether TTGTTGGGGTCTTTCTCCCTGT shows sensor-assay potency score (higher = more potent) of -0.7 or more.
Ans: Criterion not met

----------
SYSTEM_UNDER_TEST: ATP6V0A4
PROCEDURE_DETAILS: pooled miR-30 sensor sort-seq; sequence = guide strand
CONDITIONS: shRNA
Criterion: sensor-assay potency score (higher = more potent) meeting or surpassing -0.6. Met: Condition met. Not met: Condition not met.

Q: Say whether TCTTTGAACTGAACCAATCCGA shows sensor-assay potency score (higher = more potent) of -0.6 or more.
Ans: Condition met

Q: Say whether ATAGGCATCAACAATATTCTGG shows sensor-assay potency score (higher = more potent) of -0.6 or more.
Ans: Condition not met

Q: Say whether TTTCGTCACAGGATCCTCCAGA shows sensor-assay potency score (higher = more potent) of -0.6 or more.
Ans: Condition met

Q: Say whether TTGTTCTGGAACTCAACCCAGT shows sensor-assay potency score (higher = more potent) of -0.6 or more.
Ans: Condition met

Please find the next sequence below.
Q: Say whether TTCTGCACCTTGATGAGCCAGG shows sensor-assay potency score (higher = more potent) of -0.6 or more.
Ans: Condition not met
